Target: Phosphatidylinositol 4,5-bisphosphate 3-kinase catalytic subunit alpha isoform (Homo sapiens)
outcome.measure: log10 Ki (log10 of the value in nM)
The figures below represent log10 of Ki, where Ki is stated in nM.

// below: answered compounds
[[record]]
line_notation = "CC(=O)Nc1nc2ccc(-c3ccnc(Sc4ccc(C)cc4)n3)cc2s1"
measured_value = 1.77

[[record]]
line_notation = "CC(=O)Nc1nc2ccc(-c3ccnc(NS(=O)(=O)c4cccc(F)c4)n3)cc2s1"
measured_value = 1.92


Summary for this compound, COc1ccc(C(=O)Nc2nccc(-c3ccc4nc(NC(C)=O)sc4c3)n2)cc1 : log10 Ki is 3.50

Query CC(=O)Nc1nc2ccc(-c3ccnc(Cc4ccccc4)n3)cc2s1 yields log10 Ki of 2.78

The measured log10 Ki associated with CC(=O)Nc1nc2ccc(-c3ccnc(OCCCc4ccccc4)n3)cc2s1 reads 1.51

What the record says about CC(=O)Nc1nc2ccc(-c3ccnc(NS(=O)(=O)c4ccc(C)cc4)n3)cc2s1 : log10 Ki is 1.91

CC(=O)Nc1nc2ccc(-c3ccnc(NS(=O)(=O)c4ccccc4F)n3)cc2s1 yielded log10 Ki of 1.61

Kindly note the recorded log10 Ki for COc1ccc(S(=O)(=O)N(C)c2nccc(-c3ccc4nc(NC(C)=O)sc4c3)n2)cc1 , which is 1.88

Looking up CC(=O)Nc1nc2ccc(-c3ccnc(Sc4cccc(C)c4)n3)cc2s1 , I see its log10 Ki listed as 1.72

# compound COc1ccc(S(=O)(=O)Nc2cc(-c3ccc4nc(NC(C)=O)sc4c3)cnc2C#N)cc1 ; its log10 Ki = 0.15

Form: compound = CC(=O)Nc1nc2ccc(-c3ccnc(OCc4ccc(C)cc4)n3)cc2s1 ; log10 Ki = 1.76

----------
Test: in vitro
Conditions: human, liver microsomes
Description: Clearance in human liver microsomes
Reported microsomal CLint by item:
Number in µL/min/mg, nothing else.

[[record]]
line_notation = "COc1ccc(S(=O)(=O)Nc2cc(-c3ccc4nc(NC(C)=O)sc4c3)cnc2Cl)cc1"
measured_value = 42

[[record]]
line_notation = "CC(=O)Nc1nc2ccc(-c3cnc(Cl)c(NS(=O)(=O)c4cccc(C(C)(C)C)c4)c3)cc2s1"
measured_value = 83

[[record]]
line_notation = "CC(=O)Nc1nc2ccc(-c3ccnc(N(C)S(=O)(=O)c4ccc(C)cc4)n3)cc2s1"
measured_value = 579


response.value for CC(=O)Nc1nc2ccc(-c3cnc(Cl)c(NS(=O)(=O)c4cccc(C(F)(F)F)c4)c3)cc2s1 (field: microsomal CLint) = 17

----------
Test: in vitro
Conditions: human, liver microsomes
outcome.measure: microsomal CLint (µL/min/mg)
The response must be a number in µL/min/mg with no trailing unit.

[[record]]
line_notation = "CC(=O)Nc1nc2ccc(-c3cnc(Cl)c(NS(=O)(=O)c4ccc(C(C)(C)C)cc4)c3)cc2s1"
outcome_measure = "microsomal CLint"
measured_value = 135


Switching to the query record.
microsomal CLint for CC(=O)Nc1nc2ccc(-c3cnc(Cl)c(NS(=O)(=O)c4cccc(Cl)c4)c3)cc2s1 is 16

----------
Assay: in vitro
Conditions: rat, liver microsomes
Description: Clearance in rat liver microsomes
outcome.measure: microsomal CLint

Entry under test: CC(=O)Nc1nc2ccc(-c3cnc(Cl)c(NS(=O)(=O)c4cccc(Cl)c4)c3)cc2s1 . Its microsomal CLint was > 399 µL/min/mg

The molecule listed as CC(=O)Nc1nc2ccc(-c3cnc(Cl)c(NS(=O)(=O)c4ccc(Cl)cc4)c3)cc2s1 has a reported microsomal CLint of < 14 µL/min/mg

Record CC(=O)Nc1nc2ccc(-c3cnc(Cl)c(NS(=O)(=O)c4cccc(F)c4)c3)cc2s1 , field microsomal CLint: > 399 µL/min/mg

Value of microsomal CLint reported for the molecule CC(=O)Nc1nc2ccc(-c3ccnc(N(C)S(=O)(=O)c4ccc(C)cc4)n3)cc2s1 is > 399 µL/min/mg

Field microsomal CLint (entry CC(=O)Nc1nc2ccc(-c3cnc(Cl)c(NS(=O)(=O)c4ccccc4C(F)(F)F)c3)cc2s1 ) reads 500 µL/min/mg

microsomal CLint reported for this molecule CC(=O)Nc1nc2ccc(-c3cnc(Cl)c(NS(=O)(=O)c4cccc(C(C)(C)C)c4)c3)cc2s1 : 610 µL/min/mg

get_value(item= COc1ccc(S(=O)(=O)N(C)c2nccc(-c3ccc4nc(NC(C)=O)sc4c3)n2)cc1 , readout=microsomal CLint) returns > 399 µL/min/mg

----------
Recorded measurements of pIC50, one per entry
Molecular target: Serine/threonine-protein kinase mTOR (Homo sapiens, UniProt P42345)
Note: pIC50 values are expressed as the negative base-10 logarithm of concentration in M.

[[record]]
line_notation = "CC(=O)Nc1nc2ccc(-c3cnc(Cl)c(NS(=O)(=O)c4ccc(C(C)(C)C)cc4)c3)cc2s1"
measured_value = 8.68

[[record]]
line_notation = "CC(=O)Nc1nc2ccc(-c3ccnc(NS(=O)(=O)c4ccccc4F)n3)cc2s1"
measured_value = 7.35

[[record]]
line_notation = "COc1ccc(S(=O)(=O)Nc2cncc(-c3ccc4nc(NC(C)=O)sc4c3)n2)cc1"
measured_value = 7.82

[[record]]
line_notation = "CC(=O)Nc1nc2ccc(-c3cnc(Cl)c(NS(=O)(=O)c4cccc(F)c4)c3)cc2s1"
measured_value = 8.64


Proceeding to the next molecule to report its pIC50.
The molecule COc1ccc(S(=O)(=O)N(C)c2nccc(-c3ccc4nc(NC(C)=O)sc4c3)n2)cc1 showed pIC50 equal to 6.55

----------
The following are reported IC50 results, target or system Serine/threonine-protein kinase mTOR (Homo sapiens).
State the answer as a number, implicitly in nM.

Would you please look over these solved cases?
[[record]]
line_notation = "COc1ccc(Sc2nccc(-c3ccc4nc(NC(C)=O)sc4c3)n2)cc1"
outcome_measure = "IC50"
unit = "nM"
measured_value = 3010

[[record]]
line_notation = "COc1ccc(S(=O)(=O)Nc2cc(-c3ccc4nc(NC(C)=O)sc4c3)cnc2Cl)cc1"
outcome_measure = "IC50"
unit = "nM"
measured_value = 2.1


Observed IC50 on Serine/threonine-protein kinase mTOR (Homo sapiens), entry CCN(c1nccc(-c2ccc3nc(NC(C)=O)sc3c2)n1)S(=O)(=O)c1ccc(OC)cc1 , equals 262

----------
Target: Phosphatidylinositol 4,5-bisphosphate 3-kinase catalytic subunit alpha isoform (Homo sapiens, UniProt P42336)
Sequence (P42336 whole entry, canonical isoform): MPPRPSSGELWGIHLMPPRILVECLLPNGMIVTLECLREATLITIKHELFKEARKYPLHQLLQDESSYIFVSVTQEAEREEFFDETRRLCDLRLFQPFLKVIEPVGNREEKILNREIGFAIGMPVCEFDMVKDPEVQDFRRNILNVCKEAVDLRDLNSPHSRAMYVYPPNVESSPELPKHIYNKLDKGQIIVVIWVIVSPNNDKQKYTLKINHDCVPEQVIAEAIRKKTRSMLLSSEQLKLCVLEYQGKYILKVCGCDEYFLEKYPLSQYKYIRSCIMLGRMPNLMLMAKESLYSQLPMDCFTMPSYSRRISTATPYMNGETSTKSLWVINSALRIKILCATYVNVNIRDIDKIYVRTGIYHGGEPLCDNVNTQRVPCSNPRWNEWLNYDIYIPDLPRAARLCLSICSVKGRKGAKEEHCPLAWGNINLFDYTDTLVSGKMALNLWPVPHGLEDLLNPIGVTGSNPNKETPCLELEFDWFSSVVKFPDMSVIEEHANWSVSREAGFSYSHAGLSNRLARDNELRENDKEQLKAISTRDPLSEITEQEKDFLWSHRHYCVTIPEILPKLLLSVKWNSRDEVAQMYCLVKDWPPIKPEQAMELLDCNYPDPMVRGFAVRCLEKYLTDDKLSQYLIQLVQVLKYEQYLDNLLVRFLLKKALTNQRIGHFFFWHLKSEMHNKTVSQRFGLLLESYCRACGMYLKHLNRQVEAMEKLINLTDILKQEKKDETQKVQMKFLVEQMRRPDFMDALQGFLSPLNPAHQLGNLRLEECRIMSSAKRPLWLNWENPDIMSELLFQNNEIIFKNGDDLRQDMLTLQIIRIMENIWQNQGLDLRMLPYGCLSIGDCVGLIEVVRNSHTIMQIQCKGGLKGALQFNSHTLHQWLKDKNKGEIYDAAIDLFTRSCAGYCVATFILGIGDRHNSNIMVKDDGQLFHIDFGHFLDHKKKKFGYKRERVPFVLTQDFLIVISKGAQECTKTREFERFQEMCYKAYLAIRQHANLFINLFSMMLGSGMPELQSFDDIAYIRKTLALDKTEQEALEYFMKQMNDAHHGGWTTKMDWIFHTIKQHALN
outcome.measure: Ki

Example entries and their recorded answers appear below.
[[record]]
line_notation = "CC(=O)Nc1nc2ccc(-c3cnc(Cl)c(NS(=O)(=O)c4cccc(C(C)(C)C)c4)c3)cc2s1"
measured_value = "< 1 nM"

[[record]]
line_notation = "CC(=O)Nc1nc2ccc(-c3cnc(Cl)c(NS(=O)(=O)c4ccccc4Cl)c3)cc2s1"
measured_value = "< 1 nM"

[[record]]
line_notation = "CC(=O)Nc1nc2ccc(-c3cnc(Cl)c(NS(=O)(=O)c4ccc(Cl)cc4)c3)cc2s1"
measured_value = "< 1 nM"


Quick note, Ki for CC(=O)Nc1nc2ccc(-c3cnc(Cl)c(NS(=O)(=O)c4ccc(C(F)(F)F)cc4)c3)cc2s1 landed at < 1 nM

Reported Ki of COc1cccc(COc2nccc(-c3ccc4nc(NC(C)=O)sc4c3)n2)c1 : 18 nM

Note to self: Ki recorded for CC(=O)Nc1nc2ccc(-c3cnc(Cl)c(NS(=O)(=O)c4ccccc4F)c3)cc2s1 was < 1 nM

Lookup result for CC(=O)Nc1nc2ccc(-c3cnc(Cl)c(NS(=O)(=O)c4cccc(F)c4)c3)cc2s1 ; measured Ki: 1.1 nM

response.value for COc1ccc(S(=O)(=O)Nc2cc(-c3ccc4nc(NC(C)=O)sc4c3)cnc2C)cc1 (field: Ki) = 1.2 nM

The measured Ki associated with CC(=O)Nc1nc2ccc(-c3cnc(Cl)c(NS(=O)(=O)c4ccc(C(C)(C)C)cc4)c3)cc2s1 reads < 1 nM

----------
Experiment: in vitro
Conditions: human, liver microsomes
outcome.measure: microsomal CLint

For orientation, consider the following solved cases.
[[record]]
line_notation = "CC(=O)Nc1nc2ccc(-c3cnc(Cl)c(NS(=O)(=O)c4cccc(F)c4)c3)cc2s1"
measured_value = "< 14 µL/min/mg"

[[record]]
line_notation = "CC(=O)Nc1nc2ccc(-c3cnc(Cl)c(NS(=O)(=O)c4ccc(Cl)cc4)c3)cc2s1"
measured_value = "< 14 µL/min/mg"

[[record]]
line_notation = "CC(=O)Nc1nc2ccc(-c3cnc(Cl)c(NS(=O)(=O)c4ccccc4)c3)cc2s1"
measured_value = "< 14 µL/min/mg"

[[record]]
line_notation = "COc1ccc(S(=O)(=O)N(C)c2nccc(-c3ccc4nc(NC(C)=O)sc4c3)n2)cc1"
measured_value = "> 399 µL/min/mg"


Looking up CC(=O)Nc1nc2ccc(-c3cnc(Cl)c(NS(=O)(=O)c4ccccc4Cl)c3)cc2s1 , I see its microsomal CLint listed as < 14 µL/min/mg

----------
Assay: in vitro
Settings: human, liver microsomes
Reported microsomal CLint values are given for each entry in this list.

[[record]]
line_notation = "CC(=O)Nc1nc2ccc(-c3cnc(Cl)c(NS(=O)(=O)c4ccccc4F)c3)cc2s1"
outcome_measure = "microsomal CLint"
measured_value = "< 14 µL/min/mg"

[[record]]
line_notation = "CC(=O)Nc1nc2ccc(-c3cnc(Cl)c(NS(=O)(=O)c4ccccc4C(F)(F)F)c3)cc2s1"
outcome_measure = "microsomal CLint"
measured_value = "< 14 µL/min/mg"


Proceed to the following item.
Form: compound = CC(=O)Nc1nc2ccc(-c3cnc(Cl)c(NS(=O)(=O)c4ccc(C(F)(F)F)cc4)c3)cc2s1 ; microsomal CLint = < 14 µL/min/mg
